# procedure summary: folding stability dG unfold from trypsin proteolysis; higher = more stable
readout label: folding stability dG unfold (kcal/mol)
Answers are plain numbers, in kcal/mol.

Some sequences with known folding stability dG unfold results, for comparison:
Enquiry: Any idea what folding stability dG unfold was measured for SAKKTVKLKIEIYKVKVEKLKDGKEKITEVEKIAELEIEAEVDEDGKVTIRIDGKEIEVPAGTSLEELLSAG [r14_909_TrROS_Hall] ?
Return: 2.22

Enquiry: Any idea what folding stability dG unfold was measured for SAGGSAGGSAGGMKVYRIGPDLYLVENEDGSLRIYNRDTGKVFTFKPGETITITIPPELLSAGGSAGGSAGG [r7_299_TrROS_Hall] ?
Return: 2.18

Enquiry: Any idea what folding stability dG unfold was measured for SAGGLKIDEFERSPNQGRYYVTIKIYHPDNGKPWDIEVPFNPDNGRWSAEEIAKTIAKKFKLPPGFTISAGG [r13_362_TrROS] ?
Return: 1.81

Okay, next one:
Enquiry: Any idea what folding stability dG unfold was measured for SAGGSAGGSAGGMKIIKLEDDYYLIPFDSPEQLKAYTDIFEKLGLPVVVLPDGRLLVKGSAGGSAGGSAGGS [r10_1027_TrMRF] ?
Return: 2.39
